Origin of values: PubChem BioAssay AID1963963

- Test system: 958667-338-R-J2-PDC tumor spheroids viability
- protocol-description: Anticancer human tumor 958667-338-R-J2-PDC patient-derived colon adenocarcinoma cell line growth inhibition [PI3K]
- experimental-context: second compound 0.01 µM; first compound 1 µM; stronger effect = lower value; spheroids with HUVEC and MSC
Mark each entry TRUE if its viability, T/C sits below 90%, and FALSE for all others.

Observe how each entry below is paired with its result.
CC1(C)CCC(CN2CCN(c3ccc(C(=O)NS(=O)(=O)c4ccc(NCC5CCOCC5)c([N+](=O)[O-])c4)c(Oc4cnc5[nH]ccc5c4)c3)CC2)=C(c2ccc(Cl)cc2)C1 + COc1c(OCCCN2CCOCC2)ccc2c3n(c(=NC(=O)c4cnc(N)nc4)nc12)CCN3	TRUE
CC1(C)CCC(CN2CCN(c3ccc(C(=O)NS(=O)(=O)c4ccc(NCC5CCOCC5)c([N+](=O)[O-])c4)c(Oc4cnc5[nH]ccc5c4)c3)CC2)=C(c2ccc(Cl)cc2)C1 + CC(Nc1ccc2c(c1)OCCn1cc(N3C(=O)OCC3C(F)F)nc1-2)C(N)=O	TRUE
Cn1nccc1Nc1nccc(-c2ccn(C(CO)c3ccc(Cl)c(F)c3)c(=O)c2)n1 (stereo not given) + COc1c(OCCCN2CCOCC2)ccc2c3n(c(=NC(=O)c4cnc(N)nc4)nc12)CCN3	TRUE

Here's the next entry for you.
// query Is the reported viability, T/C for C[C@@H](NC(=O)c1ncnc(N)c1Cl)c1ncc(C(=O)Nc2cc(C(F)(F)F)c(Cl)cn2)s1 + CC(Nc1ccc2c(c1)OCCn1cc(N3C(=O)OCC3C(F)F)nc1-2)C(N)=O strictly below 90%?
// result FALSE

----------
- System: 958667-338-R-J2-PDC tumor spheroids viability
- protocol-description: Anticancer human tumor 958667-338-R-J2-PDC cell line growth inhibition [PI3K];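 further: spheroids exposed to compounds for seven days before readout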
- experimental-context: curve of first compound; second compound 0.1 µM; spheroids with HUVEC and MSC
Listed here are molecules together with their documented pIC50.
Lab note — pIC50 values are minus log10 of concentrations in M.

Consider the worked cases shown below.
CCCS(=O)(=O)Nc1ccc(F)c(C(=O)c2c[nH]c3ncc(-c4ccc(Cl)cc4)cc23)c1F + CC(Nc1ncnc2nc[nH]c12)c1cc2cccc(Cl)c2c(=O)n1-c1ccccc1	5.19
CC(C)n1nc(-c2ccc3oc(N)nc3c2)c2c(N)ncnc21 + CC(Nc1ncnc2nc[nH]c12)c1cc2cccc(Cl)c2c(=O)n1-c1ccccc1	7.14
CCCS(=O)(=O)Nc1ccc(F)c(C(=O)c2c[nH]c3ncc(-c4ccc(Cl)cc4)cc23)c1F + CC(Nc1ccc2c(c1)OCCn1cc(N3C(=O)OCC3C(F)F)nc1-2)C(N)=O	5.32

Then this molecule:
// query For CNC(=O)c1ccc(N2C(=S)N(c3ccc(C#N)c(C(F)(F)F)c3)C(=O)C2(C)C)cc1F + COc1c(OCCCN2CCOCC2)ccc2c3n(c(=NC(=O)c4cnc(N)nc4)nc12)CCN3 , what is its reported pIC50?
// result 5.37

----------
- Test system: 958667-338-R-J2-PDC tumor spheroids viability
- protocol-description: Anticancer human tumor 958667-338-R-J2-PDC cell line growth inhibition [PI3K];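 further: spheroids exposed to compounds for seven days before readout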
- experimental-context: second compound 3.16 µM; first compound 0.1 µM; stronger effect = lower value; spheroids with HUVEC and MSC
assay-readout: viability, T/C (%)
Dear colleague, please return just the value in %, with no unit written.

Guide cases for viability, T/C, answers given:
Cn1nccc1Nc1nccc(-c2ccn(C(CO)c3ccc(Cl)c(F)c3)c(=O)c2)n1 (stereo unspecified) + Cc1nc(NC(=O)N2CCCC2C(N)=O)sc1-c1ccnc(C(C)(C)C(F)(F)F)c1	78.8
CC(=O)c1c(C)c2cnc(Nc3ccc(N4CCNCC4)cn3)nc2n(C2CCCC2)c1=O + Cc1nc(NC(=O)N2CCCC2C(N)=O)sc1-c1ccnc(C(C)(C)C(F)(F)F)c1	71.9
CC(C)NCC(C(=O)N1CCN(c2ncnc3c2C(C)CC3O)CC1)c1ccc(Cl)cc1 (stereo unspecified) + CC(Nc1ncnc2nc[nH]c12)c1cc2cccc(Cl)c2c(=O)n1-c1ccccc1	87.5
CC(Cn1ccc(-c2ccc(C#N)c(Cl)c2)n1)NC(=O)c1cc(C(C)O)[nH]n1 (stereo unspecified) + CC(Nc1ncnc2nc[nH]c12)c1cc2cccc(Cl)c2c(=O)n1-c1ccccc1	105
C#Cc1c(F)ccc2cc(O)cc(-c3ncc4c(N5CC6CCC(C5)N6)nc(OCC56CCCN5CC(F)C6)nc4c3F)c12 (stereo unspecified) + Cc1nc(NC(=O)N2CCCC2C(N)=O)sc1-c1ccnc(C(C)(C)C(F)(F)F)c1	59.9
C[C@@H](NC(=O)c1ncnc(N)c1Cl)c1ncc(C(=O)Nc2cc(C(F)(F)F)c(Cl)cn2)s1 + CC(Nc1ncnc2nc[nH]c12)c1cc2cccc(Cl)c2c(=O)n1-c1ccccc1	89
CCCS(=O)(=O)Nc1ccc(F)c(C(=O)c2c[nH]c3ncc(-c4ccc(Cl)cc4)cc23)c1F + CC(Nc1ncnc2nc[nH]c12)c1cc2cccc(Cl)c2c(=O)n1-c1ccccc1	119
CC(C)n1nc(-c2ccc3oc(N)nc3c2)c2c(N)ncnc21 + CC(Nc1ncnc2nc[nH]c12)c1cc2cccc(Cl)c2c(=O)n1-c1ccccc1	41.2
Cn1ncc(Cl)c1-c1cc(C(=O)NC(CN)Cc2cccc(F)c2)sc1Cl (stereo unspecified) + Cc1nc(NC(=O)N2CCCC2C(N)=O)sc1-c1ccnc(C(C)(C)C(F)(F)F)c1	64.4
CC(Cn1ccc(-c2ccc(C#N)c(Cl)c2)n1)NC(=O)c1cc(C(C)O)[nH]n1 (stereo unspecified) + Cc1nc(NC(=O)N2CCCC2C(N)=O)sc1-c1ccnc(C(C)(C)C(F)(F)F)c1	55

Shift focus to the following entry.
// query Tell me the measured viability, T/C of CC1(C)CCC(CN2CCN(c3ccc(C(=O)NS(=O)(=O)c4ccc(NCC5CCOCC5)c([N+](=O)[O-])c4)c(Oc4cnc5[nH]ccc5c4)c3)CC2)=C(c2ccc(Cl)cc2)C1 + CC(Nc1ncnc2nc[nH]c12)c1cc2cccc(Cl)c2c(=O)n1-c1ccccc1 , please.
// result 108
